system: SK-MEL-28 melanoma; test: NCI tumour cell line growth inhibition, 48 h
readout: TGI

COC(=O)C1=C(O)[C@H](C(=O)OC)[C@]2(O)[C@@H](C(=O)OC)[C@H]1C[C@@H](c1ccc(OC(=O)/C=C/c3ccco3)cc1)[C@@H]2C(=O)OC | > 100 µM
CC1=C2[C@H](c3ccccc3)C3C=CC2(c2ccccc23)N(C(=O)C(c2ccccc2)c2ccccc2)C1=O (stereo not given in full) | > 100 µM
COc1cc2c(cc1OC)c1c(OC)c(OC)cc3c1c1c2sc(=S)n1CC3 | > 100 µM

So, COC(=O)c1c2c(cc3c1CC1(Cc4cc5c(cc4C1)CCC5)C3)CCC2 ? Its TGI was > 100 µM

So, N#Cc1c(N)c(C#N)c2c(c1-c1ccc(Cl)cc1)COc1ccccc1-2 ? Its TGI was 37.4 µM

So, O=C(Nc1nc(-c2ccc(Cl)cc2)nc2c1sc(=S)n2-c1ccccc1)C(F)(F)F ? Its TGI was > 100 µM

So, O=C(NN1C(=O)CSC12CCCC2)C(O)c1ccccc1 (stereo not given) ? Its TGI was > 100 µM

So, O=C(/C=C/c1ccc(O)c(O)c1)NCCc1ccc(-c2ccccc2)cc1 ? Its TGI was > 100 µM

So, CC1=CC(C)(C)Nc2ccc(CSc3ccccc3)cc21 ? Its TGI was > 100 µM

So, CCOC(=O)C1SC(=Nc2ccc(Cl)cc2C)N=C1C (stereo not given) ? Its TGI was 73.5 µM
